Data provenance: paper PMC11784839

System: tau (Homo sapiens)
Experiment: MCE Phenols Library screening, tau biosensor cell seeding assay (AvZ)
Assay type: cell-based
Condition context: average of raw data 1 and 2
Reported property: av puncta
Give bare numbers.

molecule="COc1cc(CC(C)C(C)Cc2ccc(O)c(OC)c2)ccc1O (stereo not drawn) [Dihydroguaiaretic acid]" endpoint_value=10465.9
molecule="CC(C)=CCc1c(O)ccc(C(=O)[C@@H]2[C@@H](c3c(O)cc(O)c4c(=O)c(CC=C(C)C)c(-c5ccc(O)cc5O)oc34)C=C(C)C[C@H]2c2ccc(O)cc2O)c1O [Kuwanon H]" endpoint_value=21077.1
molecule="COc1cc(O)ccc1/C=C/C(=O)c1ccc(O)cc1 [Echinatin]" endpoint_value=9040.03
molecule="CC(C(=O)c1ccc(O)cc1O)c1ccc(O)cc1 (stereo not drawn) [O-Desmethylangolensin]" endpoint_value=19189.1
molecule="COc1cc2c(cc1O)CCN1Cc3c(ccc(OC)c3OC)CC21 (stereo not drawn) [Corypalmine]" endpoint_value=18532.2
molecule="O=c1c(O)c(-c2ccccc2)oc2cc(O)cc(O)c12 [Galangin]" endpoint_value=19744.8
molecule="Cc1cc(=O)oc2c(O)c(O)ccc12 [4-Methyldaphnetin]" endpoint_value=9377.72
molecule="CC(C)=CCC[C@]1(C)C=Cc2c(O)c3c(c(CC=C(C)C)c2O1)O[C@]12C(=C[C@@H]4C[C@H]1C(C)(C)O[C@@]2(C/C=C(/C)C(=O)O)C4=O)C3=O [Gambogic acid]" endpoint_value=1315.22

Respectfully, I request av puncta for each entry included below.
1. O=C(c1ccc(O)cc1)c1c(O)cc(O)c([C@@H]2O[C@H](CO)[C@@H](O)[C@H](O)[C@H]2O)c1O [Iriflophenone 3-C-glucoside]
2. CC(C)(c1ccc(O)cc1)c1ccc(O)cc1 [Bisphenol A]
3. CC(=O)c1ccc(C)cc1O [2'-Hydroxy-4'-methylacetophenone]
4. O=C(O[C@@H]1O[C@@H]2COC(=O)c3cc(O)c(O)c(O)c3-c3c(cc(O)c(O)c3O)C(=O)O[C@H]([C@H]1O)[C@@H]2O)c1cc(O)c(O)c(O)c1 [Corilagin]
5. CCCCC[C@H](O)CC(=O)CCc1ccc(O)c(OC)c1 [[6]-Gingerol]

1. 22078.3
2. 20753.8
3. 19854.9
4. 2445.41
5. 26534.4

---

System: tau (Homo sapiens, UniProt P10636)
Sequence (P10636 623-695 limits assumed): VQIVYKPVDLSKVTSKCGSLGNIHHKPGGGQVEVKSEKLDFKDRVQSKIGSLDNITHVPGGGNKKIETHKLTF
Experiment: MCE Phenols Library screening, tau biosensor cell seeding assay (AvZ)
Type: cell-based
Condition context: raw puncta, replicate 2
Reported property: raw data 2
Answers are plain numbers.

Worked examples, 5 molecules total:
molecule=COc1cc(O)c2c(c1)O[C@H](c1ccccc1)CC2=O reported_property="raw data 2" endpoint_value=12261.6
molecule=O=C(O)Cc1cc(O)ccc1O[C@@H]1O[C@H](CO)[C@@H](O)[C@H](O)[C@H]1O reported_property="raw data 2" endpoint_value=5734.06
molecule=O=C(CCc1ccc(O)cc1)c1c(O)cc(O)cc1O[C@@H]1O[C@H](CO)[C@@H](O)[C@H](O)[C@H]1O reported_property="raw data 2" endpoint_value=9792.07
molecule="O=c1ccoc2cc(O)ccc12 [7-Hydroxy-4H-chromen-4-one]" reported_property="raw data 2" endpoint_value=6155.6
molecule="COc1ccc(CCC(=O)c2c(O)cc(O[C@@H]3O[C@H](CO)[C@@H](O)[C@H](O)[C@H]3O[C@@H]3O[C@@H](C)[C@H](O)[C@@H](O)[C@H]3O)cc2O)cc1O [Neohesperidin dihydrochalcone]" reported_property="raw data 2" endpoint_value=10367.2

Respectfully, I request raw data 2 for each entry included below.
1. Oc1cc(O)c2c(c1)O[C@H](c1cc(O)c(O)c(O)c1)[C@H](O)C2 [(-)-Epigallocatechin]
2. Cc1c(C)c2c(c(C)c1O)CC[C@@](C)(CCC[C@H](C)CCC[C@H](C)CCCC(C)C)O2
3. COc1cc(O)c(C(=O)/C=C/c2ccc(O)cc2)c(OC)c1
4. O=C(/C=C/c1ccc(O)cc1)OC[C@H]1O[C@@H](Oc2c(-c3ccc(O)cc3)oc3cc(O)cc(O)c3c2=O)[C@H](O)[C@@H](O)[C@@H]1O [Tribuloside]
5. COc1cc2c(cc1O)-c1c(OC)c(O)cc3c1[C@H](C2)NCC3

[12260.9, 7627.82, 10873.4, 11218.6, 10838.1]
